# METHOD DESCRIPTION: Residual test in soil (Test Example 7-III)
# RUN PARAMETERS: upland volcanic ash soil, irrigated condition; 5 ppm; 20 days; 30° C.
RESULT TYPE: Remaining rate in the soil (%)

Some molecules with recorded Remaining rate in the soil:
In [3]: df
Out[3]:
                                   molecule  reported
0  O=C(NC(=O)c1c(F)cccc1F)Nc1ccc(-c2ccc(Br)cc2)cc1 [drawing 49 (R=H), reference compound]        77
1  O=C(NC(=O)c1c(F)cccc1F)Nc1ccc(Oc2ccc(C(F)(F)F)cc2Cl)cc1 [drawing 48 (R=H), reference compound]        84
2  CN(C(=O)NC(=O)c1c(F)cccc1F)c1ccc(-c2ccc(Br)cc2)cc1 [drawing 49 (R=CH3)]        45
3  CN(C(=O)NC(=O)c1c(F)cccc1F)c1ccc(Oc2ccc(C(F)(F)F)cc2Cl)c(F)c1 [drawing 47 (R=CH3)]        76

[I] CN(C(=O)NC(=O)c1c(F)cccc1F)c1ccc(Oc2ccc(C(F)(F)F)cc2Cl)cc1 [drawing 48 (R=CH3)]
[II] O=C(NC(=O)c1c(F)cccc1F)Nc1ccc(Oc2ccc(C(F)(F)F)cc2Cl)c(F)c1 [drawing 47 (R=H), reference compound]
// compare measured Remaining rate in the soil between I and II ; output the lower one Identify your selection by its label.
I

###

# System: Daphnia magna Straus
# METHOD DESCRIPTION: Acute Immobilisation Test against Daphnia magna Straus (Test Example 7-II)
# Type: in vivo
# RUN PARAMETERS: first instar larvae; up to 48 hours; 23±1° C.; OECD guideline; Probit method
RESULT TYPE: EC50 of Daphnia magna Straus (50% immobilisation concentration) (ppb)
Provide the reading as a plain figure in ppb.

                                   molecule  unit_of_measurement  reported
0  CN(C(=O)NC(=O)c1c(F)cccc1F)c1ccc(Oc2ccc(C(F)(F)F)cc2Cl)cc1 [drawing 48 (R=CH3)]                  ppb        50
1  CN(C(=O)NC(=O)c1c(F)cccc1F)c1ccc(-c2ccc(Br)cc2)cc1 [drawing 49 (R=CH3)]                  ppb       150

In the following, a different molecule is considered.
The recorded EC50 of Daphnia magna Straus (50% immobilisation concentration) for CN(C(=O)NC(=O)c1c(F)cccc1F)c1ccc(Oc2ccc(C(F)(F)F)cc2Cl)c(F)c1 [drawing 47 (R=CH3)] is 150

###

# Tested on: house fly (Musca domestica)
# METHOD DESCRIPTION: Larvicidal test against larvae of house fly (Test Example 4)
# Type: in vivo
# RUN PARAMETERS: feed or water, 240 h, 10 ppm in feed, second instar larvae, 10th day after release, emerged adults counted
RESULT TYPE: mortality at 10 ppm (%)
Provide the reading as a plain figure in %.

Some compounds with recorded mortality at 10 ppm:
>>> print(df.to_string())
                            smiles_notation  reported
0  CN(C(=O)NC(=O)c1c(F)cccc1F)c1cc(F)c(-c2ccc(C(F)(F)F)cc2)cc1F       100
1  COC(=O)c1cc(N(C)C(=O)NC(=O)c2c(F)cccc2F)cc(C)c1Oc1ncc(C(F)(F)F)cc1Cl        90
2  CN(C(=O)NC(=O)c1c(F)cccc1F)c1ccc(Oc2ccc(C(F)(F)F)cc2Cl)c(Cl)c1       100

In the following, a different compound is considered.
The recorded mortality at 10 ppm for `CN(C(=O)NC(=O)c1c(F)cccc1F)c1ccc(Oc2ccc(C(F)(F)F)cc2Cl)c(Cl)c1F` is 100
